- target.or.test.system: Human IL-17A (Homo sapiens, UniProt Q16552)
- Sequence (Q16552 20-155 limits assumed): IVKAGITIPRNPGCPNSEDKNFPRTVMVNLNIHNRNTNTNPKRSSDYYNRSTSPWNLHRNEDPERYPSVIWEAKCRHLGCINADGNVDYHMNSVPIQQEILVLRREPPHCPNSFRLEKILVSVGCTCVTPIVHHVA
- experimental.protocol: Inhibition of human IL-17A protein-induced GROα/CXCL1 production in HT-29 cells
- Type: cell-based
- Design: purchased R&D 317-ILB; host or cells: added exogenously to HT-29 cells
- setup.conditions: 30 ng/mL human IL-17A protein, 48 h, GROα in supernatant by ELISA kit, read-out: Inhibitory IC50 of compounds on HT-29 cell GROα/CXCL1
Some compounds, each annotated with its measured IC50.

Illustrative cases are given below, each with its answer.
| compound | target.or.test.system | IC50 |
| --- | --- | --- |
| Cc1[nH]nc2c1-c1cc(F)c(NC(=O)[C@@H](NC(=O)c3ccnn3CC3CC(F)(F)C3)C(C3CC3)C3CC3)cc1COCC2 [compound 64] | Human IL-17A (Homo sapiens, UniProt Q16552) | 100 to 500 nM |
| Cc1[nH]nc2c1-c1cnc(NC(=O)[C@@H](NC(=O)/C(F)=C\C(C)C)C(C3CC3)C3CC3)cc1COCC2 [compound 238] | Human IL-17A (Homo sapiens, UniProt Q16552) | ≤ 100 nM |
| Cc1[nH]nc2c1-c1cc(F)c(NC(=O)[C@@H](NC(=O)c3ccnn3C(C)C)C(C3CC3)C3CC3)cc1CN(CC(F)F)CC2 [compound 158] | Human IL-17A (Homo sapiens, UniProt Q16552) | ≤ 100 nM |
| Cc1[nH]nc2c1-c1cc(F)c(NC(=O)[C@@H](NC(=O)c3ccnn3CC3(C#N)CC3)C(C3CC3)C3CC3)cc1COCC2 [compound 114] | Human IL-17A (Homo sapiens, UniProt Q16552) | 100 to 500 nM |

GET /value?item= Cc1[nH]nc2c1-c1cc(F)c(NC(=O)[C@@H](NC(=O)c3ccnn3CC(C)(F)F)C(C3CC3)C3CC3)cc1COCC2 [compound 87] &field=IC50 returns 100 to 500 nM

IC50 for Cc1[nH]nc2c1-c1cnc(NC(=O)[C@@H](NC(=O)c3conc3C(C)C)C(C3CC3)C3CC3)cc1CN(C1CC1)CC2 [compound 214] is ≤ 100 nM
